test-target: HsProRS (Homo sapiens, UniProt P07814)
Sequence (P07814 996-1512): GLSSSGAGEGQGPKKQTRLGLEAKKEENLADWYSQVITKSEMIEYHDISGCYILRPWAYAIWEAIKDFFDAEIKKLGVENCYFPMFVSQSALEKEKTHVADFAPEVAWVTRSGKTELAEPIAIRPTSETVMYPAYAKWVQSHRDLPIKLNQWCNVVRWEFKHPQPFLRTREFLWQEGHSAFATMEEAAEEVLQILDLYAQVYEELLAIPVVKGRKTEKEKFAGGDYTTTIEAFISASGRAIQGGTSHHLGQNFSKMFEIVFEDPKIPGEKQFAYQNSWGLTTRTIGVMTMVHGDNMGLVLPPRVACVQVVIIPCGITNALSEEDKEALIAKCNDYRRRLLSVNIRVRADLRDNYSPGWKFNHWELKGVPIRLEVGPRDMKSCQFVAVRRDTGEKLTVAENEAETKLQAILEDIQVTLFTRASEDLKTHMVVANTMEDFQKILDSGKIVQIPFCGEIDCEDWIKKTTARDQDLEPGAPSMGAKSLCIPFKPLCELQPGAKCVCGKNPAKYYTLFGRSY
assay-method-text: TR-FRET ligand displacement assay with tracer MAT379 (CoraFluor-1-Halo and anti-His6 antibody formats)
Format: binding
Design: made in house; host or cells: E. coli SoluBL-21
setup-conditions: HsProRS - best Kd, SI Fig 16a; values on -log scale
Please note: Kd exactly at 0.01 µM is 0.0. Only values below 0.01 µM get 1.0.

compound: O=C(NC1Cc2ccccc2C1)c1nccnc1NC(=O)C1CCC1
test-target: HsProRS (Homo sapiens, UniProt P07814)
category: 0.0
//
compound: O=C(NC1Cc2ccccc2C1)c1nccnc1NC(=O)C1CCOCC1
test-target: HsProRS (Homo sapiens, UniProt P07814)
category: 0.0
//
compound: O=C(NC1Cc2ccccc2C1)c1nccnc1NC(=O)C1CCCCC1 [compound 2, reference compound]
test-target: HsProRS (Homo sapiens, UniProt P07814)
category: 1.0
//
compound: CC1(C(=O)Nc2nccnc2C(=O)NC2Cc3ccccc3C2)CCCCC1
test-target: HsProRS (Homo sapiens, UniProt P07814)
category: 1.0
//
compound: O=C(NC1Cc2ccccc2C1)c1nccnc1NC(=O)N1CCNCC1
test-target: HsProRS (Homo sapiens, UniProt P07814)
category: 0.0
//
compound: O=C(NC1Cc2ccccc2C1)c1nccnc1NC(=O)C1(O)CCCCC1
test-target: HsProRS (Homo sapiens, UniProt P07814)
category: 0.0

## Input Hi there! Is Kd for "O=C(NC1Cc2ccccc2C1)c1nccnc1NC(=O)N1CCC(CCO)CC1" below 0.01 µM, do you know?
## Output 0.0

## Input Hi there! Is Kd for "O=C(NC1Cc2ccccc2C1)c1nccnc1NC(=O)N1CCCCC1" below 0.01 µM, do you know?
## Output 1.0

----------
test-target: HsProRS (Homo sapiens)
assay-method-text: TR-FRET ligand displacement assay with tracer MAT379 (CoraFluor-1-Halo and anti-His6 antibody formats)
Assay type: binding
Parameters: made in house; host or cells: E. coli SoluBL-21
setup-conditions: HsProRS (KD [nM]) −, absence of substrates; 250 nM MAT379
property-label: Kd (nM)
Numeric only. Scale: nM

compound: CC(C)(C)OC(=O)N1CCC[C@H]1C(=O)NC1CCN(C(=O)Nc2nccnc2C(=O)NC2Cc3ccccc3C2)CC1 [compound 31]
Kd, nM: 5130
--
compound: COc1ccc(Cl)cc1C(=O)NCCc1ccc(S(=O)(=O)NC(=O)NC2CCCCC2)cc1 [Glyburide, reference compound]
Kd, nM: 73900
--
compound: CC(C)(C)OC(=O)N1CCC[C@H]1C(=O)NCC1CCN(C(=O)Nc2nccnc2C(=O)NC2Cc3ccccc3C2)CC1 [compound 32]
Kd, nM: 72.1

Then there is this compound:
Record O=C(NC1Cc2ccccc2C1)c1nccnc1NC(=O)N1CCC(NC(=O)[C@@H]2CCCN2)CC1 [MAT334] ; system HsProRS (Homo sapiens); Kd = 2110

----------
test-target: HsProRS (Homo sapiens, UniProt P07814)
assay-method-text: TR-FRET ligand displacement assay with tracer MAT379 (CoraFluor-1-Halo and anti-His6 antibody formats)
Type: binding
Design: made in house; host or cells: E. coli SoluBL-21
setup-conditions: + 100 μM proline; 10 μM
property-label: HsProRS % signal at 10 μM, + 100 μM proline (%)
Numeric only. Scale: %

Example cases with answers are listed next.
molecule: NC1CCN(C(=O)Nc2nccnc2C(=O)NC2Cc3ccccc3C2)CC1 [compound 8]
unit-spec: %
value-measured: 64.1

molecule: Nc1nccnc1C(=O)NC1Cc2ccccc2C1 [compound 45]
unit-spec: %
value-measured: 83.7

molecule: CC(C)(C)OC(=O)NC1(C(=O)Nc2nccnc2C(=O)NC2Cc3ccccc3C2)CCCCC1 [compound 16]
unit-spec: %
value-measured: 70.7

molecule: NC(=O)Nc1nccnc1C(=O)NC1Cc2ccccc2C1 [compound 23]
unit-spec: %
value-measured: 78.4

molecule: CNc1nccnc1C(=O)NC1Cc2ccccc2C1 [compound 46]
unit-spec: %
value-measured: 91.7

molecule: O=C(NC1CCCCC1)c1nccnc1NC(=O)C1Cc2ccccc2C1 [compound 49]
unit-spec: %
value-measured: 103

molecule: O=C(O)CCCC(=O)Nc1nccnc1C(=O)NC1Cc2ccccc2C1 [compound 22]
unit-spec: %
value-measured: 79.2

molecule: CC(C)(C)OC(=O)N1CCC[C@H]1C(=O)NC1CCN(C(=O)Nc2nccnc2C(=O)NC2Cc3ccccc3C2)CC1 [compound 31]
unit-spec: %
value-measured: 59.4

molecule: CC(C)(C)OC(=O)N1CCN(C(=O)Nc2nccnc2C(=O)NC2Cc3ccccc3C2)CC1 [compound 13]
unit-spec: %
value-measured: 52.2

molecule: O=C(NC1Cc2ccccc2C1)c1nccnc1NS(=O)(=O)C1CCCCC1 [compound 50]
unit-spec: %
value-measured: 84.5

For this molecule ( CC(C)(C)OC(=O)NCC1CCN(C(=O)Nc2nccnc2C(=O)NC2Cc3ccccc3C2)CC1 [compound 9] ), measured HsProRS % signal at 10 μM, + 100 μM proline is 51.7

For this molecule ( Nc1nccnc1C(=O)NC1CCCCC1 [compound 48] ), measured HsProRS % signal at 10 μM, + 100 μM proline is 87.4
